Assign normalized growth to each entry below.
- assayOverview: chemical genetic growth profiling, strain panel (AID 1159580);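 note: tested at 20 µM; growth read once vehicle control cultures reached saturation at 30 °C; 1 = growth at the plate median or of vehicle wells; lower values mean less growth of the strain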
- testContext: S. cerevisiae deletion strains, growth OD, locus YNR052C, strain pop2, active compounds read low
In all, about 5,500 compounds went through this assay and about 2,000 (36%) were called active. Inconclusive results (about 18%) are left out. The list shows a part of the results.
Give bare numbers.

Could I get normalized growth for every one of these entries?
1. CCCCCCCCC(=O)NCc1ccc(O)c(OC)c1
2. C=C1C2CC[C@@]3(C)[C@H](c4ccoc4)OC(=O)C[C@]13O[C@H]1CC(=O)C(C)(C)[C@H](C(OC(C)=O)C(=O)OC)[C@@]21C (some centres not stated)
3. COc1ccc(C(=O)CC(=O)O)c2c1C=CC(C)(C)O2
4. COc1ccc(-c2coc3cc(O)ccc3c2=O)c(OC)c1O

[0.992, 1.02, 0.985, 0.991]

Could I get normalized growth for every one of these entries?
1. CC[C@@]1(O)C[C@H](O[C@H]2C[C@H](N(C)C)[C@H](O)[C@H](C)O2)c2c(cc3c(c2O)C(=O)c2c(O)ccc(O)c2C3=O)[C@H]1C(=O)OC
2. O=C(Oc1cc(O)cc2c1C[C@@H](OC(=O)c1cc(O)c(O)c(O)c1)[C@@H](c1cc(O)c(O)c(O)c1)O2)c1cc(O)c(O)c(O)c1
3. O=C(O[C@@H]1Cc2c(O)cc(O)cc2O[C@@H]1c1ccc(O)c(O)c1)c1cc(O)c(O)c(O)c1
4. O=C(O)/C=C/c1ccc(O)c(O)c1

[0.0986, 0.436, 0.989, 0.993]

Could I get normalized growth for every one of these entries?
1. CC(=O)Oc1cc(OC(C)=O)c2c(c1)O[C@H](c1ccc(OC(C)=O)c(OC(C)=O)c1)[C@@H](OC(C)=O)C2
2. COc1ccc(-c2coc3cc(OC)ccc3c2=O)cc1
3. Cc1ncc(CNC(=O)N(CCCl)N=O)c(N)n1
4. COc1ccccc1-c1coc2cc(O)ccc2c1=O
5. COc1ccc(-c2coc3cc(O)ccc3c2=O)cc1
6. CCN1CCCC(OC(=O)C(c2ccccc2)c2ccccc2)C1 (configuration not stated)

0.981
0.928
0.983
1.01
0.927
1.02

---

Assign normalized growth to each entry below.
- assayOverview: chemical genetic growth profiling, strain panel (AID 1159580);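 note: tested at 20 µM; growth read once vehicle control cultures reached saturation at 30 °C; 1 = growth at the plate median or of vehicle wells; lower values mean less growth of the strain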
- testContext: S. cerevisiae deletion strains, growth OD, locus YIL066C, strain RNR3, active compounds read low
In all, about 5,500 compounds went through this assay and about 2,000 (36%) were called active. Not shown: some 18% with an inconclusive outcome. Some of the results follow.
Answers are plain numbers.

Solved cases (5 shown):
What does the record list as normalized growth for CC(=O)S[C@@H]1CC2=CC(=O)CC[C@]2(C)[C@H]2CC[C@@]3(C)[C@@H](CC[C@@]34CCC(=O)O4)C12 (stereo not given in full) ? 1

What does the record list as normalized growth for C=C[C@@](C)(O)CCC1C(=C)CCC2[C@@](C)(CO)CCC[C@]12C (stereo not given in full) ? 0.996

What does the record list as normalized growth for COc1cc(CNC(=O)CCCC/C=C/C(C)C)ccc1O ? 1.01

What does the record list as normalized growth for C=C[C@@](C)(O)CCC1C(=C)C[C@H](O)C2C(C)(C)CCCC12C (stereo not given in full) ? 1.02

What does the record list as normalized growth for CCCCCCCCC(=O)NCc1ccc(O)c(OC)c1 ? 0.953

Could I get normalized growth for every one of these entries?
1. C[C@H]1COc2c(N3CCN(C)CC3)c(F)cc3c(=O)c(C(=O)O)cn1c23
2. C=CCc1ccc(OC(=O)c2ccccc2)c(OC)c1
3. CCC[C@H](N[C@@H](C)C(=O)N1[C@H](C(=O)O)C[C@@H]2CCCC[C@@H]21)C(=O)OCC
4. C=C1CCC2[C@](C)(CO)[C@H](O)CC[C@@]2(C)[C@@H]1C/C=C1/C(=O)OC[C@H]1O (stereo not given in full)
5. COc1ccc(C(=O)O)cc1OC

1
0.973
1.02
1.02
1.03
